Origin of values: PubChem BioAssay

Test: viability of HCT116 without oncogenic beta-catenin – human colon tumor cells, pilot screen (AID 823);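 further: 0% = wells killed by 20 µM Hyamine and 100% = untreated DMSO cell wells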
Conditions: HCT116 beta-catenin knockout viability, CellTiter-Glo, 60 h; at 10 µM; stronger effect = lower value
Results filed as inconclusive are left out.
Known viability of a selection of compounds

| compound | measurement-units | viability |
| --- | --- | --- |
| O=C(CSc1nc2c(c(=O)n1-c1ccc(F)cc1)SCC2)NCC1CCCO1 (stereo not given) | % | 98.2 |
| COCCOC(=O)C1=C(C)N=c2s/c(=C\c3cccs3)c(=O)n2C1c1cccs1 (stereo not given) | % | 86.3 |
| CCn1cc(C2=NOC(C(=O)Nc3c(C)nn(Cc4ccc(F)cc4)c3C)C2)c(C)n1 (stereo not given) | % | 95.2 |
| CCCCOc1ccc(-c2ncc(Cl)cn2)cc1 | % | 86.9 |
| Cn1c(=O)c2c(nc(CN3CCN(Cc4ccccc4)CC3)n2Cc2cccc(Cl)c2)n(C)c1=O | % | 60.8 |
| Cc1ccc(C(=O)Nc2ccccc2NC(=O)c2ccc(C)o2)o1 | % | 93.2 |
| Cc1nnc(SCC(=O)Nc2ccc3c4c(cccc24)CC3)n1C | % | 92.9 |
| CCOC(=O)N(C)OC(=O)Nc1ccc(Cl)c(Cl)c1 | % | 95.6 |
| CN1CCN(c2cc(=O)n(-c3ccc(Cl)cc3)c(=O)[nH]2)CC1 | % | 108 |
| CCN1CCN(C(=O)C2CC(c3ccc(F)cc3)=NO2)CC1 (stereo not given) | % | 95.2 |
| COc1ccc(N2CCN(Cc3nc4c(c(=O)n(C)c(=O)n4C)n3Cc3ccccc3C)CC2)cc1 | % | 90.7 |
| CC(=O)Nc1ccc(S(=O)(=O)N2CCN(C(=O)CCC3CCCC3)CC2)cc1 | % | 78.7 |
| CCCC(=O)c1cc(F)c(N2CCN(S(=O)(=O)c3ccccc3)CC2)cc1C | % | 90.3 |
| CC1CCc2nn(CC(=O)NCCN3CCCCC3C)cc2C1 (stereo not given) | % | 101 |
| Cc1cccc(N(CC(=O)N2CCCC2)S(=O)(=O)c2ccccc2)c1C | % | 93.9 |
| CCOC(=O)Cn1c(=O)oc2cc(S(=O)(=O)NCc3cccs3)ccc21 | % | 90.6 |
| Oc1c(C(c2cccs2)N2CCOCC2)sc2ncnn12 (stereo not given) | % | 105 |
| COc1ccc(C2CC(c3ccc(Cl)cc3Cl)n3nc(N)nc3N2)cc1 (stereo not given) | % | 90.9 |
| CCCOCCOC(=O)c1[nH]c2c(c1C)C(=O)CC(c1cc(OC)ccc1OC)C2 (stereo not given) | % | 17.3 |
| CCCOC(=O)CC1C(=O)NCCN1Cc1ccc(F)cc1 (stereo not given) | % | 104 |
| Cc1ccc(CNC(=O)c2cc3c(=O)n(C)c4ccccc4c3n2C)o1 | % | 106 |
| Cc1ccc(S(=O)(=O)C(C#N)c2nc3ccccc3nc2N2CCCCC2)cc1 (stereo not given) | % | 93.8 |
| COC(=O)c1c(C)nn(-c2ccccc2)c1N | % | 108 |
| COc1ccc(OC)c2[nH]c(=O)c(CCNC(=O)C(C)C)cc12 | % | 108 |
| COc1ccccc1NC(=O)CSc1nnc(Cc2cccn2C)n1-c1ccc(F)cc1 | % | 86.7 |
| Cc1ccc(C(C)C)c(OCCCN2CC(C)OC(C)C2)c1 (stereo not given) | % | 78.5 |
| COc1cc(-c2nnc(COc3ccc4cc(Br)ccc4c3)o2)cc(OC)c1OC | % | 62.9 |
| CC1=C(C(N)=O)C(c2ccccn2)n2nc(-c3ccccc3Cl)nc2N1 (stereo not given) | % | 101 |
| O=C(CN1C(=O)c2ccccc2S1(=O)=O)NC1CCCCCC1 | % | 102 |
| CCCn1c(OC)nc2c1c(=O)n(C)c(=O)n2C | % | 107 |
| CCOC(=O)C(CC)Sc1ncnc2nc[nH]c12 (stereo not given) | % | 97.5 |
| CCOC(=O)c1ccccc1NC(=O)C1COc2ccccc2O1 (stereo not given) | % | 83.2 |
| Cc1ccc2[nH]c(=O)c3cc(C(=O)N4CCN(C(=O)c5ccco5)CC4)sc3c2c1 | % | 99 |
| COc1cc(C2c3c(oc4ccccc4c3=O)C(=O)N2c2ccc(C)cn2)ccc1O (stereo not given) | % | 91.9 |
| O=C(COC(=O)C1(c2ccccc2F)CCCC1)NC1CCS(=O)(=O)C1 (stereo not given) | % | 99.4 |
| Cc1ccccc1Cn1ccc(NC(=O)c2onc(C)c2Cl)n1 | % | 103 |
| COC(=O)/C=C/S(=O)(=O)c1ccc(NC(C)=O)cc1 | % | 88.3 |
| CCOC(=O)c1cccc(NC(=O)CNC(=O)C2CCCCC2)c1 | % | 96.1 |
| S=c1[nH]nc(CSc2nc3ccccc3s2)o1 | % | 93.8 |
| C=C(C)Cn1c(C(C)NC(=O)CCC)nc2ccccc21 (stereo not given) | % | 83.9 |
| O=C(CSc1nc2c(cnn2-c2ccc(F)cc2)c(=O)[nH]1)N1CCCCC1 | % | 91.7 |
| CCc1cccc(NC(=O)CCc2nc(-c3cccs3)no2)c1 | % | 95.6 |
| COc1ccc(C2CC(=O)C(C=NCCCN3CCOCC3)=C(O)C2)cc1 (stereo not given) | % | 103 |
| COc1ccc(-c2[nH]c(-c3cccc(OC)c3)nc2SCC(=O)NCc2ccco2)cc1 | % | 93.3 |
| CC1C(=O)CC(c2ccccc2)N(C)C1c1ccccc1 (stereo not given) | % | 82.8 |
